Molecular target: mTOR (Homo sapiens, UniProt P42345)
Test: Lanthascreen kinase binding assay, assay G
Conditions: read-out: Assay G mTOR IC50
Measured IC50, listed per entry for reference.

COMPOUND	IC50
Cc1ccc(S(=O)(=O)NC(C)CO)cc1-c1cnc(N)c(-n2cncn2)n1 (stereo not shown) [Example 127.42]	> 10 µM
Cc1cncc(-c2nc(-c3cc(S(=O)(=O)NCCC(C)(C)O)ccc3C)cnc2N)c1 [Example 119.7]	4.32 µM
Cc1ccc(S(=O)(=O)NCC2(CO)CCOCC2)cc1-c1cnc(N)c(-n2cncn2)n1 [Example 127.50]	5.6 µM
Cc1cc(-c2nc(-c3cc(S(=O)(=O)NC[C@H]4CCNC4)ccc3C)cnc2N)ccn1 [Example 129.36]	> 9.1 µM
Cc1ccc(S(=O)(=O)NCCC(C)(C)O)cc1-c1cnc(N)c(-c2cscn2)n1 [Example 108]	> 10 µM
Cc1cn(-c2nc(-c3cc(S(=O)(=O)NCC(C)(C)O)ccc3C)cnc2N)c(C)n1 [Example 50]	> 10 µM
Cc1ccc(S(=O)(=O)NCC2(CO)CC2)cc1-c1cnc(N)c(-n2cncn2)n1 [Example 127.38]	> 10 µM
Cc1ccc(S(=O)(=O)NCC(C)(C)O)cc1-c1cnc(N)c(-c2noc(C3CC3)n2)n1 [Example 91]	> 9.55 µM
Cc1ccc(S(=O)(=O)NC[C@H]2CCCO2)cc1-c1cnc(N)c(-n2cncn2)n1 [Example 127.14]	9 µM
Cc1ccc(S(=O)(=O)NCC(C)(C)O)cc1-c1cnc(N)c(-c2cnn(CC(F)(F)F)n2)n1 [Example 84]	> 10 µM
